# tested system: human TYK2 (JH2domain-pseudokinase) (Homo sapiens (Human))
# protocol summary: TYK2 JH2 Domain Binding Assay (KINOMEscan)
observation type: Kd

* CNc1cc(Nc2cccn([C@H]3CC[C@H](OC)CC3)c2=O)nc2c(C(=O)NCC(C)(C)CO)cnn12 [I-544] | < 0.2 nM
* CNc1cc(Nc2cccn([C@@H]3CCCOC3)c2=O)nc2c(C(=O)N[C@H]3CCC[C@H](O)C3)cnn12 [I-734] | 0.2 to 1 nM
* CNc1cc(Nc2cccn(-c3ccc(F)cn3)c2=O)nc2c(C(N)=O)cnn12 [I-48] | 0.2 to 1 nM

Look at this compound and give its reported Kd. CNc1cc(Nc2cccnc2OC)nc2c(C(=O)N[C@H]3C[C@H]3F)cnn12 [I-110]
< 0.2 nM

Repeat with CNc1cc(Nc2cccn(-c3ncccc3F)c2=O)nc2c(C(=O)O)cnn12 [I-893]
1 to 10 nM

What do we get for CNc1cc(-c2cn(C3CCOCC3)c3ncccc23)nc2c(C(=O)N[C@H]3CC[C@H]3O)cnn12 [I-1113] ?
< 0.2 nM

Can you handle CNc1cc(Nc2cccn(-c3ccc(CCN4CCOCC4)cc3)c2=O)nc2c(C(=O)N[C@H]3C[C@H]3F)cnn12 [I-308] next?
< 0.2 nM

Cool, now CNc1cc(-c2cn(C3CCOCC3)c3ncccc23)nc2c(C(=O)N[C@@H]3CC[C@@H]3O)cnn12 [I-1114]
0.2 to 1 nM

----------
# tested system: human TYK2 (JH2domain-pseudokinase) (Homo sapiens (Human), UniProt P29597)
# Sequence (P29597 556-888): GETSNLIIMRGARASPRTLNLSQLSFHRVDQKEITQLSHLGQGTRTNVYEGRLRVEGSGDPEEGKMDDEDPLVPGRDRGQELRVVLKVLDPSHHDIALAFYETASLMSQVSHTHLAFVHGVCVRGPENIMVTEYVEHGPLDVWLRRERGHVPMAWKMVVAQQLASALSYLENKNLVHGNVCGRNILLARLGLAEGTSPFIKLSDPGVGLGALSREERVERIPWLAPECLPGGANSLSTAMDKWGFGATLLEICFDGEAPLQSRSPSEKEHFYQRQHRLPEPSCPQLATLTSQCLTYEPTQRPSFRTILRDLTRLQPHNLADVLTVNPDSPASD
# protocol summary: TYK2 JH2 Domain Binding Assay (KINOMEscan)
pKd: −log10 of the molar value.
observation type: pKd

• CNc1cc(Nc2cccn([C@H]3CCC[C@H](O)C3)c2=O)nc2c(C(=O)N[C@H]3CC[C@@H]3OC)cnn12 [I-1396] = 9.00 to 9.70
• CNc1cc(Nc2cccn(-c3ccc(F)cn3)c2=O)nc2c(C(=O)NC3CC3)cnn12 [I-116] = > 9.70
• CNc1cc(-n2cc(N3CCN(C)CC3)c3ncccc32)nc2c(C(=O)NC3CC3)cnn12 [I-574] = 8.00 to 9.00
• CNc1cc(Nc2cccn([C@@H]3CCC[C@@H](O)C3)c2=O)nc2c(C(=O)N[C@@H]3C[C@@H]3F)cnn12 [I-1029] = > 9.70
• CNc1cc(Nc2cccc3ocnc23)nc2c(C(=O)NCC3(CO)CC3)cnn12 [I-749] = > 9.70

# returns recorded pKd (system: human TYK2 (JH2domain-pseudokinase) (Homo sapiens (Human), UniProt P29597)) for CNc1cc(Nc2cccn(-c3ccc(C(=O)N4CCCC4)cn3)c2=O)nc2c(C(N)=O)cnn12 [I-45]
> 9.70

Please answer likewise for CNc1cc(Nc2cc(N3CCCC3)nc(C(F)(F)F)c2)nc2c(C(N)=O)cnn12 [I-112]
8.00 to 9.00

Entry CNc1cc(Nc2cccn([C@H]3CCC[C@H](OC)C3)c2=O)nc2c(C(=O)N[C@@H]3CC[C@H]3OC)cnn12 [I-1374] please
9.00 to 9.70

Again, but for CNc1cc(Nc2cccn([C@@H]3CCCC[C@@H]3OC)c2=O)nc2c(C(=O)NC3CC3)cnn12 [I-989]
< 8.00

Now the compound CNc1cc(Nc2cc(C)c(=O)n(-c3cnn(C)c3)c2)nc2c(C(N)=O)cnn12 [I-287]
8.00 to 9.00

Another compound to look at: CNc1cc(Nc2cc(F)cnc2OC(C)C)nc2c(C(=O)NC3CCC3)cnn12 [I-210]
9.00 to 9.70

Same lookup for CNc1cc(-c2cn([C@H]3CCN(CCF)C3)c3ncccc23)nc2c(C(=O)N[C@@H]3C[C@@H]3F)cnn12 [I-1362] , please.
9.00 to 9.70

Also CCn1cc(Cl)cc(Nc2cc(NC)n3ncc(C(=O)NC4CC4)c3n2)c1=O [I-133] ?
> 9.70

Can you check CNc1cc(-c2cn(CCN3CCCCC3)c3ncccc23)nc2c(C(=O)N[C@H]3CC[C@H]3O)cnn12 [I-875] next?
> 9.70

Cool, now CNc1cc(-c2cn(CCN3CCCCC3)c3ncccc23)nc2c(C(=O)N[C@@H]3CC[C@@H]3O)cnn12 [I-874]
8.00 to 9.00

Would you kindly repeat that for CNc1cc(Nc2cc(F)cn([C@@H]3CCCOC3)c2=O)nc2c(C(=O)N[C@H]3C[C@H]3F)cnn12 [I-558] ?
> 9.70

For CNc1cc(Nc2cccn(-c3ccccc3F)c2=O)nc2c(C(=O)N[C@@H]3CC[C@H]3O)cnn12 [I-1039] then?
> 9.70

// repeat for CNc1cc(Nc2cccn(C3CCCCC3)c2=O)nc2c(C(=O)N[C@H]3CC[C@H]3O)cnn12 [I-1001] and report
8.00 to 9.00

What do you have for CNc1cc(Nc2cccn([C@@H]3CCOC[C@@H]3OC)c2=O)nc2c(C(=O)NC3CC3)cnn12 [I-567] ?
8.00 to 9.00

What do we get for CNc1cc(Nc2cccn([C@@H]3CCN(C)CC3(F)F)c2=O)nc2c(C(=O)NC3CC3)cnn12 [I-824] ?
9.00 to 9.70

Another compound to check: CNc1cc(Nc2cccnc2OC)nc2c(C(=O)N[C@H]3CC[C@H](O)C3)cnn12 [I-487]
> 9.70

Try this compound next: CNc1cc(Nc2cccn([C@H]3CCCOC3)c2=O)nc2c(C(=O)N[C@@H]3CC[C@H]3O)cnn12 [I-725]
> 9.70

Moving on to CNc1cc(Nc2cccn(C3CCOCC3)c2=O)nc2c(C(=O)N[C@H]3CC[C@H](OC)C3)cnn12 [I-1194]
> 9.70
